The reported numbers originate from PubChem BioAssay AID1418.

- targetEntity: Induced myeloid leukemia cell differentiation protein Mcl-1 (Homo sapiens)
- runDescription: blockers of Bid binding to Mcl-1 – biochemical, TR-FRET, dose response (AID 1418)
- testConditions: Mcl-1/Bid peptide binding, TR-FRET (europium/Dy647), 2 hr
Active and inactive are the calls of the source. How the calls were made is not given here.
Your reply should match one of these outcome classes. 1 (active), 0 (inactive)

Take a look at these entries with their results.
COC(=O)c1c(C)[nH]c(C(=O)C(C)[N+]23CCN(CC2)CC3)c1C (configuration not stated)	1
Cc1nc2c(c(=O)n1CCC1=CCCCC1)c1nc3ccccc3nc1n2/N=C/c1ccco1	0
Cc1nn(-c2ccccc2C(=O)O)c(=O)c2ccccc12	0
COc1cc(OC)cc(C(=O)Nc2ccc(-c3nc4ccccc4o3)c(O)c2)c1	1

Test call, this compound: CCS(=O)(=O)N1CCN(C(C)CCc2ccccc2)CC1 (configuration not stated)
0

Field entry: `Cc1cccc(-n2c(SCC(=O)Nc3nnc(C)s3)nnc2-c2ccoc2C)c1`
0

Field entry: `COC(=O)c1ccc(=O)c2nc3/c(=C/O)c(O)cc(=O)c3[nH]c12`
1

Field entry: `CCOC(=O)c1c(C)oc2cc(Br)c(OC(=O)N3CCOCC3)cc12`
0

Field entry: `O=[N+]([O-])c1ccc(NC(=S)NCCc2ccc(Cl)cc2)cc1`
0

Field entry: `Cc1ccc2nc(-c3ccc(SCC(=O)Nc4nnc(C)s4)nc3)[nH]c2c1`
1

Field entry: Cc1ccc(C2C3=C(Nc4[nH]n(-c5ccccc5)c(=O)c42)c2ccccc2C3=O)cc1 (configuration not stated)
1

Field entry: `O=C(Cc1c(Cl)cccc1Cl)OCC(=O)N1CCc2ccccc2C1`
0
